PROTOCOL: physchem
CONDITION LABEL: 5% aqueous hpcd
PROPERTY: solubility at 3 h (µg/mL)
All answers are understood in µg/mL, so give the number only.

Query: State the recorded solubility at 3 h for this entry: O=C(O)CCCc1ccc(N(CCCl)CCCl)cc1 [Chlorambucil]
Response: 1460

* * *

PROTOCOL: Phase-solubility experiments in aqueous HPCD at 30.0±0.2°C (chlorambucil, lomustine, melphalan)
CONDITION LABEL: 25% w/v aqueous hpcd
PROPERTY: solubility (µg/mL)
All answers are understood in µg/mL, so give the number only.

Query: State the recorded solubility for this entry: O=NN(CCCl)C(=O)NC1CCCCC1
Response: 8900

* * *

PROTOCOL: physchem
CONDITION LABEL: water (0% hpcd)
PROPERTY: solubility
Don't forget the unit after the number, please.

Query: State the recorded solubility for this entry: N[C@@H](Cc1ccc(N(CCCl)CCCl)cc1)C(=O)O [Melphalan]
Response: 1260 µg/mL

* * *

PROTOCOL: physchem
CONDITION LABEL: water (0% hpcd)
PROPERTY: solubility at 3 h (µg/mL)
All answers are understood in µg/mL, so give the number only.

Query: State the recorded solubility at 3 h for this entry: O=C(O)CCCc1ccc(N(CCCl)CCCl)cc1
Response: 10

* * *

PROTOCOL: physchem
CONDITION LABEL: 10% aqueous hpcd
PROPERTY: solubility at 3 h (µg/mL)
All answers are understood in µg/mL, so give the number only.

Query: State the recorded solubility at 3 h for this entry: O=C(O)CCCc1ccc(N(CCCl)CCCl)cc1
Response: 4960

* * *

PROTOCOL: physchem
CONDITION LABEL: 4% aqueous hpcd
PROPERTY: solubility at 3 h (mg/mL)
All answers are understood in mg/mL, so give the number only.

Query: State the recorded solubility at 3 h for this entry: O=C(O)CCCc1ccc(N(CCCl)CCCl)cc1
Response: 3.22

* * *

PROTOCOL: Phase-solubility experiments in aqueous HPCD at 30.0±0.2°C (chlorambucil, lomustine, melphalan)
CONDITION LABEL: 50% w/w aqueous hpcd
PROPERTY: solubility at 4 h

Query: State the recorded solubility at 4 h for this entry: O=NN(CCCl)C(=O)NC1CCCCC1 [Lomustine]
Response: ~12 mg/mL

* * *

PROTOCOL: Phase-solubility experiments in aqueous HPCD at 30.0±0.2°C (chlorambucil, lomustine, melphalan)
CONDITION LABEL: water
PROPERTY: solubility

Query: State the recorded solubility for this entry: O=NN(CCCl)C(=O)NC1CCCCC1 [Lomustine]
Response: 180 µg/mL

* * *

PROTOCOL: physchem
Format: physicochemical
CONDITION LABEL: 50 mm aqueous α-cyclodextrin, Maximum Solubility
PROPERTY: solubility (µg/mL)
All answers are understood in µg/mL, so give the number only.

Query: State the recorded solubility for this entry: CN1C=CCC(C(=O)O[C@H]2CC[C@H]3[C@@H]4CCc5cc(O)ccc5[C@H]4CC[C@]23C)=C1 [Example E2-CDS]
Response: 5

* * *

PROTOCOL: physchem
CONDITION LABEL: 2% aqueous hpcd
PROPERTY: solubility at 84 h (mg/mL)
All answers are understood in mg/mL, so give the number only.

Query: State the recorded solubility at 84 h for this entry: O=C(O)CCCc1ccc(N(CCCl)CCCl)cc1
Response: 0.84
